# protocol: Cmax in Enterococcus faecalis infected Wistar rat at single administration of 2 to 3 g, po
# Assay type: ADME, organism-based
# condition_description: in vivo
metric: Cmax (ng/mL)
Answers are plain numbers, in ng/mL.

Give Cmax for CC1(C)S[C@@H]2[C@H](NC(=O)[C@H](N)c3ccc(O)cc3)C(=O)N2[C@H]1C(=O)O
29400

###

# protocol: Cmax in Enterococcus faecalis infected Wistar rat at 600 mg, po two consecutive administration every 12 hrs
# Assay type: ADME, organism-based
# Design: dose 600 mg, route oral
# condition_description: in vivo
metric: Cmax (ng/mL)
Give bare numbers, in ng/mL.

Give Cmax for CC(=O)NC[C@H]1CN(c2ccc(N3CCOCC3)c(F)c2)C(=O)O1
18600
